- System: β-galactosidase in CMV-LacZ C2C12 myotubes
- ASSAY NAME: CMV-LacZ secondary screen in C2C12 myotubes (β-Gal stabilizing assay)
- Assay type: cell-based, mouse
- RUN CONDITIONS: 20 uM; CMV-LacZ C2C12 myotubes; 96-well format
READOUT KIND: CMV-LACZ in Myotubes (β-galactosidase activity relative to DMSO)
The answer should be a number; do not append a unit.

>  <COMPOUND>
O=Cc1cnc(N2CCCCC2)s1 [MLS000721730-01]

>  <QUANTITATIVE RESULT>
0.9311

$$$$
>  <COMPOUND>
O=S(=O)(NCC(c1ccco1)N1CCOCC1)c1ccc(Cl)cc1 (stereo not shown) [MLS000724709-01]

>  <QUANTITATIVE RESULT>
1.054

$$$$

Ask | Report CMV-LACZ in Myotubes (β-galactosidase activity relative to DMSO) for O=C(NCc1ccccc1)C(c1ccc(O)cc1)N(C(=O)Cn1nnc(-c2cccs2)n1)c1ccc2c(c1)OCCO2 (stereo not shown) [MLS000123454-01] please.
Reply | 0.8796

Ask | Could you do the same for NS(=O)(=O)c1ccc(NC(=O)c2cc(-c3ccccc3O)n[nH]2)cc1 [MLS001214443-01] , please?
Reply | 0.9507

---

Measured Burkin Assay in Myoblasts, value relative to DMSO accompanies every entry in the list below.
- Test system: α7 integrin (LacZ reporter in α7βgal+/− myoblasts)
- ASSAY NAME: Myoblast α7+/LacZ integrin FDG assay (Burkin assay in myoblasts, 96-well)
- Format: cell-based, mouse
- RUN CONDITIONS: 20 uM; α7+/LacZ myoblasts, 96-well

>  <MOLECULE>
CC(C)(CC(=O)O)CC(=O)N1CCCN(c2nccc(C(F)(F)F)n2)CC1 [MLS001181671-01]

>  <MEASURED ON>
α7 integrin (LacZ reporter in α7βgal+/− myoblasts)

>  <RESULT>
0.8113

$$$$
>  <MOLECULE>
Cc1ccc(NC(=O)NCc2nc3ccccc3n2C)cc1 [MLS001175592-01]

>  <MEASURED ON>
α7 integrin (LacZ reporter in α7βgal+/− myoblasts)

>  <RESULT>
0.9731

$$$$

Ask | Report Burkin Assay in Myoblasts, value relative to DMSO for O=Cc1cnc(N2CCCCC2)s1 [MLS000721730-01] please.
Reply | 0.827

Ask | Could you do the same for Cc1ccccc1C(=O)Nc1scc(-c2ccc(Br)cc2)c1C(=O)O [MLS001179267-01] , please?
Reply | 0.9305

Ask | Could you do the same for Cc1ccc(-c2csc(Nc3ccc(C(=O)O)cc3)[n+]2Cc2ccccc2)cc1 [MLS000374261-01] , please?
Reply | 0.8376

---

Measured Burkin Assay in Myotubes, α7 integrin LacZ reporter signal relative to DMSO accompanies every entry in the list below.
- Test system: α7 integrin (LacZ reporter in α7+/LacZ myotubes)
- ASSAY NAME: Myotube α7 integrin FDG assay (Burkin assay in myotubes, 96-well)
- Format: cell-based, mouse
- RUN CONDITIONS: myotubes, 0.5 uM
The answer should be a number; do not append a unit.

Would you please look over these solved cases?
>  <COMPOUND>
CCOc1ccccc1NC(=O)COC(=O)CNS(=O)(=O)c1ccc(C)cc1 [MLS000393567-01]

>  <QUANTITATIVE RESULT>
0.8882

$$$$
>  <COMPOUND>
Cc1ccccc1NC(=O)NCCCN1CCN(C)CC1 [MLS001197665-01]

>  <QUANTITATIVE RESULT>
1.115

$$$$
>  <COMPOUND>
O=C(CCc1ccccc1)c1nnc(-c2ccccc2)o1 [MLS001004364-01]

>  <QUANTITATIVE RESULT>
1.093

$$$$
>  <COMPOUND>
COc1ccc(S(=O)(=O)N(NC2=NS(=O)(=O)c3ccccc32)C(=O)C(C)C)cc1 [MLS000682883-01]

>  <QUANTITATIVE RESULT>
0.8116

$$$$
>  <COMPOUND>
CCCn1c(-c2cc(OC)c(OC)c(OC)c2)nc2c1c(=O)[nH]c(=O)n2Cc1ccccc1 [MLS001174740-01]

>  <QUANTITATIVE RESULT>
0.9078

$$$$

Ask | Report Burkin Assay in Myotubes, α7 integrin LacZ reporter signal relative to DMSO for Cc1ccccc1S(=O)(=O)N1C[C@H]2CON(C)[C@H]2C[C@H]1c1cccc(-c2ccccc2)c1 [MLS002694363-01] please.
Reply | 0.9909

Ask | Could you do the same for Cc1ccc(NS(=O)(=O)c2ccc3c(c2)NC(=O)CCS3)c(Br)c1 [MLS001095231-01] , please?
Reply | 1.005

Ask | Could you do the same for COc1cc(/C=C/CN2CCN(Cc3ccc(C)o3)C(CCO)C2)ccc1O (stereo not drawn) [MLS000693704-01] , please?
Reply | 0.9315

Ask | Could you do the same for N#C/C(=C/c1ccc(N2CCOCC2)o1)C(=O)Nc1ccccc1 [MLS000689218-01] , please?
Reply | 0.9663
